Provenance of the data: the supplement of paper PMC12667976

# AIRE transcriptional activation functional score per entry
B1: library; numbered along this chain (parent)
chain: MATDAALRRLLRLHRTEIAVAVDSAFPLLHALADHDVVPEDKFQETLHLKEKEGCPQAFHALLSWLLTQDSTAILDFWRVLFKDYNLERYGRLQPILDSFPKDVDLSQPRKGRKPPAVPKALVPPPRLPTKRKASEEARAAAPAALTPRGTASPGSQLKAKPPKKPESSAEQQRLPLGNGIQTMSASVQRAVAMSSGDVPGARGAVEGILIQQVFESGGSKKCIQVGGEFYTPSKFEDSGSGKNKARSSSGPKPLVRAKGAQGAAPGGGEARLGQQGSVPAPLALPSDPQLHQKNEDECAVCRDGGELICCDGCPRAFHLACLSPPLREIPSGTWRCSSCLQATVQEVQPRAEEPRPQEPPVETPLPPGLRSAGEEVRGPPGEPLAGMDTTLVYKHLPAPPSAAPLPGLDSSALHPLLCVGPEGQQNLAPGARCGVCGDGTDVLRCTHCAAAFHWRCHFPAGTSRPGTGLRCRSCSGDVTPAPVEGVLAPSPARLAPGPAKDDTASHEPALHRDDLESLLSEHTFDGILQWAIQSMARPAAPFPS

Variants of: B1
Assay: AIRE transcriptional activation functional score (insulin promoter-GFP; nonsense median 0, synonymous median 1) (normalised score); higher = higher AIRE activity (more reporter activation)
Details: with insulin promoter-GFP reporter in HEK293
outcome.measure: AIRE transcriptional activation functional score

variant.notation | data.value
A451E | 1.02
E354T | 0.99
G251H | 1.02
